The values you see were collected from patent US20190223437A1.

# System: causal agent of apple scab (Venturia inaequalis)
# Assay Comment: Example E: in vivo preventive test on Venturia test (apples)
# Assay Conditions: 1 ppm a.i., compound alone
Entries and their Efficacy in % found
A complete answer gives the number followed by the unit.

Use the examples below as a reference point.
[
  {
    "Molecule": "N#Cc1cncn1CC(O)(Cc1ccccc1F)C1(Cl)CC1 (stereo not shown)",
    "Efficacy in % found": "8%"
  },
  {
    "Molecule": "CC1CC(C)(C)c2cccc(NC(=O)c3cn(C)nc3C(F)F)c21 (stereo not shown) [Example 2.027, reference compound]",
    "Efficacy in % found": "8%"
  }
]

molecule O=C(Cc1ccccc1)N/C(=N\OCC1CC1)c1c(C(F)(F)F)ccc(F)c1F , Efficacy in % found observed: 0%

According to the records, this molecule N#Cc1cncn1CC(O)(Cc1cccc(Cl)c1F)C1(Cl)CC1 (stereo not shown) displays Efficacy in % found of 0%

----------
# Assay Comment: Measurement of Log P values by HPLC on reversed phase columns (EEC directive 79/831 Annex V.A8)
# Type: physicochemical
Marks after values point to notes of the source that are not given here.
Endpoint Label: LogP

[
  {
    "Compound": "CC(C)C(O)(Cc1ccc(F)c(F)c1F)Cn1cncc1C#N (stereo not drawn)",
    "LogP": "2.78^[a]"
  },
  {
    "Compound": "N#Cc1cncn1CC(O)(Cc1ccc(Cl)cc1F)C1CCC1 (stereo not drawn)",
    "LogP": "3.13^[a]"
  }
]

Continue with the compound presented below.
// sample N#Cc1cncn1CC(O)(Cc1ccccc1Cl)CC1CC1 (racemic) , its LogP was 2.84^[a]
